tested on: H9c2 cardiomyocytes, 2-deoxyglucose stress, ATP luminescence, 2 h; assay: H9c2 cell survival under 2-deoxyglucose stress – uHTS hits, dose response (AID 588780)
Active and inactive are the calls of the source.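 How the source made its calls: active means compounds whose fitted half-maximal concentration in the cell-protection dose series is at or below a set limit; inactive means the rest.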
Possible outcomes: yes = active, no = inactive

>>> group("COC(=O)c1cc(OC)c(OC)cc1NC(=O)c1ccc(OC)c(OC)c1")
"no"
>>> group("O=C(OCc1cc(=O)n2ccsc2n1)c1ccc(O)cc1O")
"no"
>>> group("CC(=O)Nc1cc(C)nn1-c1nc2ccccc2s1")
"yes"
>>> group("CC(=O)Nc1cc(-c2ccc(C(=O)N3CCOCC3)cc2)cn2c(-c3ccc(C(C)=O)cc3)cnc12")
"yes"
>>> group("CCCNC(=O)c1ccc2c(=O)c(O)c(-c3ccc(C)cc3)[nH]c2c1")
"no"
>>> group("Cc1ccc(NC(=O)CSC(C)C(=O)OCc2cc(=O)oc3cc(O)ccc23)cc1 (centres undefined)")
"no"
>>> group("Cc1ccc(C)c(C(=O)Nc2cc(C)nn2-c2nc(C)cc(C)n2)c1")
"no"
>>> group("Cc1ccc(NS(=O)(=O)c2cc(-c3n[nH]c(=O)c4ccccc34)ccc2C)cc1")
"no"
>>> group("CCOC(=O)c1cc(-c2ccc(/C=N\\n3cnnc3)o2)ccc1Cl")
"no"

----------
tested on: H9c2 cardiomyocytes, 2-deoxyglucose stress, ATP luminescence, 2 h; test: H9c2 cell survival under 2-deoxyglucose stress – uHTS hits, dose response (AID 588780)
The source made the active and inactive calls.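 How the source made its calls: active means compounds whose fitted half-maximal concentration in the cell-protection dose series is at or below a set limit; inactive means the rest.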
Possible outcomes: active, inactive

>>> group("COc1cc(-c2cc(C(=O)Nc3cccc(C(C)=O)c3)c3ccccc3n2)cc(OC)c1OC")
"inactive"
>>> group("Cn1c(C(=O)NCCc2ccsc2)cc2c(=O)n(C)c3ccccc3c21")
"inactive"
>>> group("N#Cc1c(-c2cccs2)cc(-c2cccnc2)nc1N")
"inactive"
>>> group("CCOC(=O)C1=c2/c(=C/c3ccncc3)c(N)c(C(=O)OC)n2C(=O)C(c2ccncc2)S1 (centres undefined)")
"inactive"
>>> group("COc1cc(CN2C[C@@H](CO)O[C@@H](n3cnc4c(Nc5ccccc5)ncnc43)C2)cc(OC)c1OC")
"active"
>>> group("COc1ccc2o/c(=N/NC(=O)c3cccs3)c(C(N)=O)cc2c1")
"active"
>>> group("Cc1cc(C(=O)COc2ccccc2C(N)=O)c(C)n1C")
"active"
>>> group("COCCCn1c(N)c(C(=O)Nc2sc3c(c2C(=O)OC)CCCC3)c2nc3ccccc3nc21")
"inactive"
>>> group("COc1cc(C(=O)Nc2ccc(NC(=O)c3ccco3)nc2)cc(OC)c1OC")
"inactive"

----------
tested on: H9c2 cardiomyocytes, 2-deoxyglucose stress, ATP luminescence, 2 h; assay: H9c2 cell survival under 2-deoxyglucose stress – uHTS hits, dose response (AID 588780)
Active and inactive are the calls of the source.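 How the source made its calls: active means compounds whose fitted half-maximal concentration in the cell-protection dose series is at or below a set limit; inactive means the rest.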
Possible outcomes: y (active), n (inactive)

>>> group("COc1cccc(OC)c1-c1nn2c(-c3ccco3)nnc2s1")
"n"
>>> group("COc1ccc(-c2cc(-c3nnc(COC(=O)c4ccncc4)o3)c3ccccc3n2)cc1OC")
"y"
>>> group("CC(=O)Nc1ccc2c(c1)[nH]c(=O)c1ccccc12")
"n"
>>> group("COc1ccc(/C=N/NC(=O)c2sccc2OCc2ccc(F)cc2)cc1OC")
"y"
>>> group("Cc1noc(C)c1COC(=O)COc1ccc2c(C)cc(=O)oc2c1")
"n"
>>> group("COc1cc(-c2nnc(-c3cc(OC)c(OC)c(OC)c3)o2)cc(OC)c1OC")
"n"
